Data provenance: patent US20250304596A1

Target system: HiBit-BRM fusion protein (Homo sapiens)
Construct: expressed in transfected cells
Sequence (P51531 whole entry, the tested form may be a part): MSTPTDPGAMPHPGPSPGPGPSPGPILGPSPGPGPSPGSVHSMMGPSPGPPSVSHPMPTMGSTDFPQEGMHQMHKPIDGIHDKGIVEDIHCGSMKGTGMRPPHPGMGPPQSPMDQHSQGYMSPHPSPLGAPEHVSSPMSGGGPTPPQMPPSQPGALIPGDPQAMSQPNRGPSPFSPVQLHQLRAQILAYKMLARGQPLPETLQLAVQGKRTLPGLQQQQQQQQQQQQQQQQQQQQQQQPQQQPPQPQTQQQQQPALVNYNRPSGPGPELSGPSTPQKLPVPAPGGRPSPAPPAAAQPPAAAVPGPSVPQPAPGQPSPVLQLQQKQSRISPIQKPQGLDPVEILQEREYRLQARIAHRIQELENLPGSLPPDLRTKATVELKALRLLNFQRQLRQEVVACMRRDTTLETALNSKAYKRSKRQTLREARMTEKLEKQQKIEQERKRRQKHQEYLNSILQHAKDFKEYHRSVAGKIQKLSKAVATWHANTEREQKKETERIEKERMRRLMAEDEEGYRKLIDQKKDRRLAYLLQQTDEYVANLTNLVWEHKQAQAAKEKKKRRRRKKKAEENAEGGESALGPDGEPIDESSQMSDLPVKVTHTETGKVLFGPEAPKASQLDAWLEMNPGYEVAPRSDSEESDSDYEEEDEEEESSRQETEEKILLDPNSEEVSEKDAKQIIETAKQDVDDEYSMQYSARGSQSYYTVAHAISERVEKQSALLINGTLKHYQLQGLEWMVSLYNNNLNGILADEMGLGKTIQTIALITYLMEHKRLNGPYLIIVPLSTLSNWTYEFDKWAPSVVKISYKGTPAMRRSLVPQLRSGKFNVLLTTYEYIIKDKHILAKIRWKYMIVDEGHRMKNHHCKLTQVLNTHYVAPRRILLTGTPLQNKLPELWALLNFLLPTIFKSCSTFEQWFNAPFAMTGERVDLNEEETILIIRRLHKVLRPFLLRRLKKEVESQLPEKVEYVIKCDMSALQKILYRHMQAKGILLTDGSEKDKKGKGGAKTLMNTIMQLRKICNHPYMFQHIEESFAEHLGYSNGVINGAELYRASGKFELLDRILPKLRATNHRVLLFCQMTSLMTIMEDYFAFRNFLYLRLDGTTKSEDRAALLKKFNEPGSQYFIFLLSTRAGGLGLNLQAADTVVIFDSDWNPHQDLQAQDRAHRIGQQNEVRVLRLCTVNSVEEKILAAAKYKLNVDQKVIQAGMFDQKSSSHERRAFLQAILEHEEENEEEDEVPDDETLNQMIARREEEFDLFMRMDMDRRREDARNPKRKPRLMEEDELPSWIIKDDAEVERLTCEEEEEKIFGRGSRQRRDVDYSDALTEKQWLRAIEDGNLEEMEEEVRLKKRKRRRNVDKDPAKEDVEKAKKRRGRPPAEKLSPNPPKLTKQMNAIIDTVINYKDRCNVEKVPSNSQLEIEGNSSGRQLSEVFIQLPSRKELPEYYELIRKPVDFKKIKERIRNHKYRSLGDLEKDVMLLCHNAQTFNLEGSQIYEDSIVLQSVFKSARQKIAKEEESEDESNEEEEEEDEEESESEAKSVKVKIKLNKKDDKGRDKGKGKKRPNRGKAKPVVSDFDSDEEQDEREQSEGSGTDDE
Procedure summary: HiBiT-BRM cell-based degradation assay (Nano-Glo HiBiT Lytic Detection, 24 h)
Measurement context: stable HeLa cell line expressing HiBiT-BRM
Measurement label: BRM HiBit Degradation Maximum (%)

# input Give recorded BRM HiBit Degradation Maximum (%) with HiBit-BRM fusion protein (Homo sapiens) for the following compound: `Cc1ncsc1-c1ccc([C@H](C)NC(=O)[C@@H]2C[C@@H](O)CN2C(=O)[C@@H](c2cc(N3CC(c4sc5nnc(-c6ccccc6O)cc5c4C)C3)no2)C(C)C)cc1`
# output 2%

* * *

Target system: HiBit-BRM fusion protein (Homo sapiens)
Construct: expressed in transfected cells
Procedure summary: HiBiT-BRM cell-based degradation assay (Nano-Glo HiBiT Lytic Detection, 24 h)
Measurement context: stable HeLa cell line expressing HiBiT-BRM, read-out: BRM HiBit Degradation IC50
Measurement label: DC50

{"columns": ["Molecule", "Target system", "Measurement label", "Value reported"],
 "data": [
  ["Cc1ncsc1-c1ccc([C@H](C)NC(=O)[C@@H]2C[C@@H](O)CN2C(=O)[C@@H](c2cc(-c3cnc(N4CC[C@H](c5cc6nnc(-c7ccccc7O)cc6s5)C4)nc3)no2)C(C)C)cc1", "HiBit-BRM fusion protein (Homo sapiens)", "DC50", "< 10 nM"],
  ["Cc1ncsc1-c1ccc([C@H](C)NC(=O)[C@@H]2C[C@@H](O)CN2C(=O)[C@@H](c2cc(-c3cnc(N4CCC5(CC4)CC(c4sc6nnc(-c7ccccc7O)cc6c4C)C5)nc3)no2)C(C)C)cc1", "HiBit-BRM fusion protein (Homo sapiens)", "DC50", "> 10 nM"],
  ["Cc1ncsc1-c1ccc([C@H](C)NC(=O)[C@@H]2C[C@@H](O)CN2C(=O)[C@@H](c2cc(-c3ccnc(N4CCC(c5sc6nnc(-c7ccccc7O)cc6c5C)CC4)c3)no2)C(C)C)cc1", "HiBit-BRM fusion protein (Homo sapiens)", "DC50", "> 10 nM"],
  ["Cc1ncsc1-c1ccc([C@H](C)NC(=O)[C@@H]2C[C@@H](O)CN2C(=O)[C@@H](c2cc(-c3cnc(N4CCC(c5sc6nnc(-c7ccccc7O)cc6c5C)CC4)nc3)no2)C(C)C)cc1 (single isomer, unassigned)", "HiBit-BRM fusion protein (Homo sapiens)", "DC50", "< 10 nM"],
  ["Cc1ncsc1-c1ccc([C@H](C)NC(=O)[C@@H]2C[C@@H](O)CN2C(=O)C(c2cc(N3CC4(C3)CN(c3cc5nnc(-c6ccccc6O)cc5s3)C4)no2)C(C)C)cc1 (stereo partly drawn)", "HiBit-BRM fusion protein (Homo sapiens)", "DC50", "< 10 nM"]
]}

# input Query: DC50; subject: Cc1ncsc1-c1ccc([C@H](C)NC(=O)[C@@H]2C[C@@H](O)CN2C(=O)[C@@H](c2cc(-c3cnc(N4CCC(c5sc6nnc(-c7ccccc7O)cc6c5C)[C@@H](C)C4)nc3)no2)C(C)C)cc1 (stereo in doubt)
# output < 10 nM

# input Query: DC50; subject: `Cc1ncsc1-c1ccc([C@H](C)NC(=O)[C@@H]2C[C@@H](O)CN2C(=O)[C@@H](c2cc(N3C[C@@H]4[C@H](C3)[C@H]4c3cc4nnc(-c5ccccc5O)cc4s3)no2)C(C)C)cc1`
# output < 10 nM

# input Query: DC50; subject: `Cc1ncsc1-c1ccc([C@H](C)NC(=O)[C@@H]2C[C@@H](O)CN2C(=O)[C@@H](c2cc(C3CCN(c4cnc(N5CCC(c6sc7nnc(-c8ccccc8O)cc7c6C)CC5)nc4)CC3)no2)C(C)C)cc1`
# output < 10 nM

# input Query: DC50; subject: `Cc1ncsc1-c1ccc([C@H](C)NC(=O)[C@@H]2C[C@@H](O)CN2C(=O)[C@@H](c2cc(N3CC4(C3)CN(c3sc5nnc(-c6ccccc6O)cc5c3C)C4)no2)C(C)C)cc1`
# output < 10 nM

# input Query: DC50; subject: `Cc1ncsc1-c1ccc([C@H](C)NC(=O)[C@@H]2C[C@@H](O)CN2C(=O)[C@@H](c2cc(-c3cnc(N4CC[C@@H](c5cc6nnc(-c7ccccc7O)cc6s5)C4)nc3)no2)C(C)C)cc1`
# output < 10 nM

# input Query: DC50; subject: Cc1ncsc1-c1ccc([C@H](C)NC(=O)[C@@H]2C[C@@H](O)CN2C(=O)[C@@H](c2cc(C#Cc3sc4nnc(-c5ccccc5O)cc4c3C)no2)C(C)C)cc1 (single isomer, unassigned)
# output > 100 nM

# input Query: DC50; subject: `Cc1ncsc1-c1ccc([C@H](C)NC(=O)[C@@H]2C[C@@H](O)CN2C(=O)[C@@H](c2cc(-c3cnc(N4C[C@H]5C[C@@H]4C[C@@H]5c4cc5cc(-c6ccccc6O)nnc5s4)nc3)no2)C(C)C)cc1`
# output < 10 nM

# input Query: DC50; subject: `Cc1ncsc1-c1ccc([C@H](C)NC(=O)[C@@H]2C[C@@H](O)CN2C(=O)[C@@H](c2cc(-c3cnc(N4CCC(c5cc6cc(-c7ccccc7O)nnc6s5)CC4)nc3)no2)C(C)C)cc1`
# output < 10 nM

# input Query: DC50; subject: `Cc1cc(N2CC[C@@H](c3sc4nnc(-c5ccccc5O)cc4c3C)C2)ncc1-c1cc([C@H](C(=O)N2C[C@H](O)C[C@H]2C(=O)N[C@@H](C)c2ccc(-c3scnc3C)cc2)C(C)C)on1`
# output > 10 nM

# input Query: DC50; subject: `Cc1ncsc1-c1ccc([C@H](C)NC(=O)[C@@H]2C[C@@H](O)CN2C(=O)[C@@H](c2cc(N3CC4(CCC(c5sc6nnc(-c7ccccc7O)cc6c5C)CC4)C3)no2)C(C)C)cc1`
# output < 10 nM

# input Query: DC50; subject: `Cc1ncsc1-c1ccc([C@H](C)NC(=O)[C@@H]2C[C@@H](O)CN2C(=O)[C@@H](c2cc(-c3cnc(N4CC[C@H](c5cc6cc(-c7ccccc7O)nnc6s5)C4)nc3)no2)C(C)C)cc1`
# output < 10 nM

# input Query: DC50; subject: `Cc1ncsc1-c1ccc([C@H](C)NC(=O)[C@@H]2C[C@@H](O)CN2C(=O)[C@@H](c2cc(N3C[C@@H]4[C@H](C3)[C@H]4c3sc4nnc(-c5ccccc5O)cc4c3C)no2)C(C)C)cc1`
# output < 10 nM

# input Query: DC50; subject: `Cc1cc(N2CCC(c3sc4nnc(-c5ccccc5O)cc4c3C)CC2)ncc1-c1cc([C@H](C(=O)N2C[C@H](O)C[C@H]2C(=O)N[C@@H](C)c2ccc(-c3scnc3C)cc2)C(C)C)on1`
# output < 10 nM
